Test system: K86415-001-R-J1-PDC complex spheroids, viability;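 also: spheroids exposed to agents for seven days before readout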
RUN_DESCRIPTION: Anticancer human tumor K86415-001-R-J1-PDC patient-derived lung adenocarcinoma cell line growth inhibition [RAS]
CONDITION_DETAILS: curve of first compound; second compound 1 µM
ATTRIBUTE_MEASURED: IC50

Form: compound = O=C(c1ccc(F)c(F)c1Nc1ccc(I)cc1F)N1CC(O)([C@@H]2CCCCN2)C1 + C=CC(=O)N1CCN(c2nc(OCC3CCCN3C)nc3c(F)c(-c4nc(N)cc(C)c4C(F)(F)F)c(Cl)cc23)C(C)C1 ; IC50 = < 3.16 nM

The measured IC50 associated with CCC(CC)c1cc(NC2CCC(N)C2)n2nccc2n1 (centres undefined) + C=CC(=O)N1CCN(c2nc(OCC3CCCN3C)nc3c(F)c(-c4nc(N)cc(C)c4C(F)(F)F)c(Cl)cc23)C(C)C1 reads < 31.6 nM

The compound NC1c2ccccc2OC12CCN(c1cnc3c(N4CCCc5ncccc54)n[nH]c3n1)CC2 (centres undefined) + C#Cc1c(F)ccc2cc(O)cc(-c3ncc4c(N5CC6CCC(C5)N6)nc(OCC56CCCN5CC(F)C6)nc4c3F)c12 showed IC50 equal to < 31.6 nM

So, CCN1CCN(Cc2ccc(Nc3ncc(F)c(-c4cc(F)c5nc(C)n(C(C)C)c5c4)n3)nc2)CC1 + C=CC(=O)N1CCN(c2nc(OCC3CCCN3C)nc3c(F)c(-c4nc(N)cc(C)c4C(F)(F)F)c(Cl)cc23)C(C)C1 ? Its IC50 was < 3.16 nM

IC50 reading for CC(C)NCC(C(=O)N1CCN(c2ncnc3c2C(C)CC3O)CC1)c1ccc(Cl)cc1 (centres undefined) + C=CC(=O)N1CCN(c2nc(OCC3CCCN3C)nc3c(F)c(-c4nc(N)cc(C)c4C(F)(F)F)c(Cl)cc23)C(C)C1 : < 31.6 nM

Measured IC50, O=C(c1ccc(F)c(F)c1Nc1ccc(I)cc1F)N1CC(O)([C@@H]2CCCCN2)C1 + C#Cc1c(F)ccc2cc(O)cc(-c3ncc4c(N5CC6CCC(C5)N6)nc(OCC56CCCN5CC(F)C6)nc4c3F)c12 : 12.5 nM

Given item CC(=O)OC12COC1CC(O)C1(C)C(=O)C(O)C3=C(C)C(OC(=O)C(O)C(NC(=O)OC(C)(C)C)c4ccccc4)CC(O)(C(OC(=O)c4ccccc4)C21)C3(C)C (centres undefined) + C#Cc1c(F)ccc2cc(O)cc(-c3ncc4c(N5CC6CCC(C5)N6)nc(OCC56CCCN5CC(F)C6)nc4c3F)c12 , the value recorded as its IC50 is < 31.6 nM

IC50 in this record for CC(Nc1ccc2c(c1)OCCn1cc(N3C(=O)OCC3C(F)F)nc1-2)C(N)=O (centres undefined) + C=CC(=O)N1CCN(c2nc(OCC3CCCN3C)nc3c(F)c(-c4nc(N)cc(C)c4C(F)(F)F)c(Cl)cc23)C(C)C1 : < 31.6 nM

Lookup result for CCC(CC)c1cc(NC2CCC(N)C2)n2nccc2n1 (centres undefined) + C#Cc1c(F)ccc2cc(O)cc(-c3ncc4c(N5CC6CCC(C5)N6)nc(OCC56CCCN5CC(F)C6)nc4c3F)c12 ; measured IC50: 1620 nM

Reported IC50 ( NC1c2ccccc2OC12CCN(c1cnc3c(N4CCCc5ncccc54)n[nH]c3n1)CC2 (centres undefined) + C=CC(=O)N1CCN(c2nc(OCC3CCCN3C)nc3c(F)c(-c4nc(N)cc(C)c4C(F)(F)F)c(Cl)cc23)C(C)C1 ) = < 31.6 nM

Form: compound = Nc1ccn(C2OC(CO)C(O)C2(F)F)c(=O)n1 (centres undefined) + C#Cc1c(F)ccc2cc(O)cc(-c3ncc4c(N5CC6CCC(C5)N6)nc(OCC56CCCN5CC(F)C6)nc4c3F)c12 ; IC50 = 45.5 nM

IC50 reading for CC(=O)OC12COC1CC(O)C1(C)C(=O)C(O)C3=C(C)C(OC(=O)C(O)C(NC(=O)OC(C)(C)C)c4ccccc4)CC(O)(C(OC(=O)c4ccccc4)C21)C3(C)C (centres undefined) + C=CC(=O)N1CCN(c2nc(OCC3CCCN3C)nc3c(F)c(-c4nc(N)cc(C)c4C(F)(F)F)c(Cl)cc23)C(C)C1 : < 31.6 nM

IC50 recorded for this compound, Nc1ccn(C2OC(CO)C(O)C2(F)F)c(=O)n1 (centres undefined) + C=CC(=O)N1CCN(c2nc(OCC3CCCN3C)nc3c(F)c(-c4nc(N)cc(C)c4C(F)(F)F)c(Cl)cc23)C(C)C1 , is < 3.16 nM

Value of measured IC50 for the entry Cc1nc(N2CCC3(CC2)COC(C)C3N)c(CO)nc1Sc1ccnc(N)c1Cl (centres undefined) + C#Cc1c(F)ccc2cc(O)cc(-c3ncc4c(N5CC6CCC(C5)N6)nc(OCC56CCCN5CC(F)C6)nc4c3F)c12 : < 31.6 nM

Note to self: IC50 recorded for CC(Nc1ccc2c(c1)OCCn1cc(N3C(=O)OCC3C(F)F)nc1-2)C(N)=O (centres undefined) + C#Cc1c(F)ccc2cc(O)cc(-c3ncc4c(N5CC6CCC(C5)N6)nc(OCC56CCCN5CC(F)C6)nc4c3F)c12 was 472 nM

Quick note, IC50 for C[C@@H](NC(=O)c1ncnc(N)c1Cl)c1ncc(C(=O)Nc2cc(C(F)(F)F)c(Cl)cn2)s1 + C=CC(=O)N1CCN(c2nc(OCC3CCCN3C)nc3c(F)c(-c4nc(N)cc(C)c4C(F)(F)F)c(Cl)cc23)C(C)C1 landed at < 31.6 nM

So for CC1(C)CCC(Nc2ncc(C(F)(F)F)c(-c3c[nH]c4c(P(C)(C)=O)c(C#N)ccc34)n2)CN1 (centres undefined) + C#Cc1c(F)ccc2cc(O)cc(-c3ncc4c(N5CC6CCC(C5)N6)nc(OCC56CCCN5CC(F)C6)nc4c3F)c12 , the logged IC50 turned out to be > 300 nM

The measured IC50 associated with C[C@@H](NC(=O)c1ncnc(N)c1Cl)c1ncc(C(=O)Nc2cc(C(F)(F)F)c(Cl)cn2)s1 + C#Cc1c(F)ccc2cc(O)cc(-c3ncc4c(N5CC6CCC(C5)N6)nc(OCC56CCCN5CC(F)C6)nc4c3F)c12 reads 7330 nM

Value of IC50 reported for the compound CCc1c2c(nc3ccc(O)cc13)-c1cc3c(c(=O)n1C2)COC(=O)[C@]3(O)CC + C=CC(=O)N1CCN(c2nc(OCC3CCCN3C)nc3c(F)c(-c4nc(N)cc(C)c4C(F)(F)F)c(Cl)cc23)C(C)C1 is < 0.949 nM
